Ref: BindingDB's records for doi:10.1016/j.ejmech.2012.02.023

test.name: Inhibition of TNF-alpha-induced NF-kappaB p65 nuclear translocation in human A549 cells after 2 hrs by fluorescence assay
recorded.metric: IC50

These recorded examples may help you get a feel for the data.
COc1ccc(/C=C/C(=O)c2ccc(N)c(-c3ccc(OC)c(OC)c3)c2)c(OC)c1; 1.7 µM
COc1ccc(/C=C/C(=O)c2cccc(-c3ccc(F)cc3)c2)cc1; > 50 µM
O=C(/C=C/c1ccc(Br)cc1)c1cccc(-c2cccc(F)c2)c1; > 50 µM

Fill in: IC50 of "COc1ccc(/C=C/C(=O)c2cccc(-c3ccc(F)nc3)c2)cc1O" is ___
> 50 µM

# input compound: "COc1ccc(-c2cc(C(=O)/C=C/c3cccc(OC)c3OC)ccc2N)cc1OC" ; wanted: its IC50
11.9 µM

Would you kindly share the measured IC50 for "O=C(/C=C/c1ccc(Cl)cc1)c1cccc(-c2cccc(F)c2)c1" ?
24.4 µM

Tell me the measured IC50 of "COc1cc(/C=C/C(=O)c2ccc(N)c(-c3ccc(F)cc3)c2)cc(OC)c1OC" , please.
11.6 µM

Param item = "COc1ccc(/C=C/C(=O)c2cccc(-c3cccc(F)c3)c2)cc1" ; retrieve measured IC50.
> 50 µM
